What dextramer-positive events was measured for each of the following?
target: T1, CT45 (CT45A1, A2, A3, A5 to A10); CT45-IP peptide on HLA-A*02:01 (human); assay: CT45-IP-HLA-A*02 dextramer on T cells with TCR mRNA; TCR found by tetramer sorting; full-length, on cells
T1 peptide: KIFEMLEGV
Your answer is read as %, so omit the unit and give the number.

Ask: Check the records and state dextramer-positive events for TCR-15 (TCR, V domains shown) Valpha: KQEVTQIPAALSVPEGENLVLNCSFTDSAIYNLQWFRQDPGKGLTSLLLIQSSQREQTSGRLNASLDKSSGRSTLYIAASQPGDSATYLCAVLLTGKLIFGQGTTLQVKP Vbeta: GVTQTPRYLIKTRGQQVTLSCSPISGHRSVSWYQQTPGQGLQFLFEYFSETQRNKGNFPGRFSGRQFSNSRSEMNVSTLELGDSALYLCASSGGPGPSGEQYFGPGTRLTVT
Result: 22.6

Ask: Give reported dextramer-positive events value for TCR-6 (TCR, V domains shown) Valpha: QKEVEQDPGPLSVPEGAIVSLNCTYSNSAFQYFMWYRQYSRKGPELLMYTYSSGNKEDGRFTAQVDKSSKYISLFIRDSQPSDSATYLCAMSGNSGARDYGNNRLAFGKGNQVVVIP Vbeta: EVTQTPKHLVMGMTNKKSLKCEQHMGHRAMYWYKQKAKKPPELMFVYSYEKLSINESVPSRFSPECPNSSLLNLHLHALQPEDSALYLCASATWEEAGPYNEQFFGPGTRLTVL
Result: 2.9
